// data source = ChEMBL document CHEMBL1158467

compounds and their reported Cmax
# Assay procedure: Cmax in Sprague-Dawley rat at 10 mg/kg, po dosed as aqueous suspension of 1% polysorbate 80 in 0.5% methylcellulose within 0.25 to 24 hrs
# Format: ADME, organism-based
# Parameters: dose 10 mg/kg, route oral
# Assay conditions: in vivo
Give the value in nM but do not write nM after it.

Completed entries (count: 3):
Problem: Report Cmax, nothing else, for this compound: `C[C@H](C1CC1)n1cc(Cl)nc(Nc2c(Cl)cc(C(F)(F)F)cc2Cl)c1=O`
Result: 490

Problem: Report Cmax, nothing else, for this compound: `C[C@@H](C1CC1)n1cc(Cl)nc(Nc2c(Cl)cc(OC(F)F)cc2Cl)c1=O`
Result: 100

Problem: Report Cmax, nothing else, for this compound: `Cc1cn([C@H](C)C2CC2)c(=O)c(Nc2c(C)cc(Cl)cc2C)n1`
Result: 95

Next, consider the following compound.
Problem: Report Cmax, nothing else, for this compound: `C[C@H](C1CC1)n1cc(C#N)nc(Nc2c(Cl)cc(OC(F)F)cc2Cl)c1=O`
Result: 160

----------
# Measurement target: Corticotropin-releasing factor receptor 1 (Rattus norvegicus)
# Sequence (P35353 whole entry): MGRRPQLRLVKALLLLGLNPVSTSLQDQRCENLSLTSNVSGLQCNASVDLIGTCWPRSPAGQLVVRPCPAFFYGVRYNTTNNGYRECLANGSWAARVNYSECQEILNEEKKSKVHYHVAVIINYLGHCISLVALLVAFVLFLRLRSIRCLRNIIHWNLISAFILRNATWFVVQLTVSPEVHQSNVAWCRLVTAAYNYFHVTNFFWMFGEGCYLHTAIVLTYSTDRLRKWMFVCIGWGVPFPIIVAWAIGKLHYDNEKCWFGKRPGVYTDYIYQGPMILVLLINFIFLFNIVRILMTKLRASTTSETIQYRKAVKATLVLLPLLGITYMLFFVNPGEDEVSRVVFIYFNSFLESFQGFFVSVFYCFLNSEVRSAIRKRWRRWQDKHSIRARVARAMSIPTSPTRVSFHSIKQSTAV
# Assay procedure: Displacement of [125I]ovine-CRF from CRF1 receptor in rat frontal cortex by rapid filtration technique
# Type: tissue-based
compounds and their reported IC50
Give the value in nM but do not write nM after it.

Completed entries (count: 3):
Problem: Report IC50, nothing else, for this compound: `Cc1cc(Cl)cc(Cl)c1Nc1nc(Cl)cn([C@H](C)C2CC2)c1=O`
Result: 1.2

Problem: Report IC50, nothing else, for this compound: `CC[C@H](C1CC1)n1cc(Cl)nc(Nc2c(Cl)cc(OC)cc2Cl)c1=O`
Result: 0.44

Problem: Report IC50, nothing else, for this compound: `Cc1cn([C@H](C)C2CC2)c(=O)c(Nc2c(C)cc(Cl)cc2C)n1`
Result: 3.1

Next, consider the following compound.
Problem: Report IC50, nothing else, for this compound: `C[C@H](C1CC1)n1cc(Cl)nc(Nc2c(Cl)cc(Cl)cc2Cl)c1=O`
Result: 0.91

----------
# Assay procedure: Intrinsic clearance in human liver microsomes at 1 uM
# Format: ADME, Microsome
Reported endpoint: CLint scaled at 1 µM (mL/min/kg)
Give the value in mL/min/kg but do not write mL/min/kg after it.

Completed entries (count: 4):
Problem: Report CLint scaled at 1 µM, nothing else, for this molecule: `COc1cc(C)c(Nc2nc(Cl)cn([C@H](C)C3CC3)c2=O)cc1C`
Result: 61

Problem: Report CLint scaled at 1 µM, nothing else, for this molecule: `C[C@H](C1CC1)n1cc(Cl)nc(Nc2c(Cl)cc(OC(F)F)cc2Cl)c1=O`
Result: 22

Problem: Report CLint scaled at 1 µM, nothing else, for this molecule: `CC[C@H](C1CC1)n1cc(Cl)nc(Nc2c(Cl)cc(C#N)cc2Cl)c1=O`
Result: 160

Problem: Report CLint scaled at 1 µM, nothing else, for this molecule: `COc1cc(Cl)c(Nc2nc(Cl)cn([C@H](C)C3CC3)c2=O)cc1F`
Result: 180

Next:
Problem: Report CLint scaled at 1 µM, nothing else, for this molecule: `Cc1cc(C#N)cc(Cl)c1Nc1nc(Cl)cn([C@H](C)C2CC2)c1=O`
Result: 38

Problem: Report CLint scaled at 1 µM, nothing else, for this molecule: `COC[C@@H](C1CC1)n1cc(Cl)nc(Nc2c(Cl)cc(C(F)(F)F)cc2Cl)c1=O`
Result: 64

Problem: Report CLint scaled at 1 µM, nothing else, for this molecule: `COC[C@@H](C)n1cc(Cl)nc(Nc2c(Cl)cc(C#N)cc2Cl)c1=O`
Result: 35

Problem: Report CLint scaled at 1 µM, nothing else, for this molecule: `Cc1cc(Cl)c(Nc2nc(Cl)cn([C@H](C)C3CC3)c2=O)cc1C#N`
Result: 160
